Recorded α-human koff by entry
Target: T1, human α-CGRP (Homo sapiens, UniProt P06881)
T1 construct: 1-37 (WT); purchased GenScript Corporation or Global Peptide Services
T1 sequence (P06881 83-119 limits assumed): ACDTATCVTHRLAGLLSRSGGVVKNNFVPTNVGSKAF
Experiment: Biacore SPR affinity of Fab fragments to N-biotinylated human α-CGRP on SA chip
Type: binding
Details: 37° C., screening mode except underlined values
Numeric only. Scale: s⁻¹

Look over these answered cases.
- molecule: "M50: G1 variant; L1 R28N; L2 G50A L56T; H2 E54K A57R; HC-FW3 L99T A100V (antibody, V domains shown) VH: EVQLVESGGGLVQPGGSLRLSCAASGFTFSNYWISWVRQAPGKGLEWVAEIRSKSDRSATHYAEAVKGRFTISRDNAKNSLYLQMNSLRAEDTAVYYCTVYFDYGLAIQNYWGQGTLVTVSS VL: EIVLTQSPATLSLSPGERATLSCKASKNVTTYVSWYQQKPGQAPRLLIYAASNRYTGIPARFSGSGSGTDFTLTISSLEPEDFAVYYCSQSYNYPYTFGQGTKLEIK"
  recordedNumber: 0.000406
- molecule: "M51: G1 variant; L1 R28N; L2 L561; H2 E54K A57G; HC-FW3 L99T A100V (antibody, V domains shown) VH: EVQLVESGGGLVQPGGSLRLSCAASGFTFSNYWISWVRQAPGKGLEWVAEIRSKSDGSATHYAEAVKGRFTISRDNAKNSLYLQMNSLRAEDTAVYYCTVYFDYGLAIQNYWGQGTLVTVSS VL: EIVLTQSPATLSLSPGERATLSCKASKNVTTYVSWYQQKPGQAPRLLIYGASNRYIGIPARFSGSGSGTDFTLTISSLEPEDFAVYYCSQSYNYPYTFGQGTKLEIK"
  recordedNumber: 0.000131
- molecule: "M45: G1 variant; L1 R28N; L2 G50A L56T; H2 E54K A57N S58E E64D; HC-FW3 L99T A100V (antibody, V domains shown) VH: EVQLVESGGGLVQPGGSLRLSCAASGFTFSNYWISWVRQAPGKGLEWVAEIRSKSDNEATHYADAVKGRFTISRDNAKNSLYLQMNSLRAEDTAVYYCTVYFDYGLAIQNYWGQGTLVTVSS VL: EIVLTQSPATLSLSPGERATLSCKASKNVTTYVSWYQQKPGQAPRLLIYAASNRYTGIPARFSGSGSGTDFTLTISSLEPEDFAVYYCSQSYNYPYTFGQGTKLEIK"
  recordedNumber: 0.000211

Ask: Recorded α-human koff for M81: G1 variant; L1 R28N T30S; L2 L56S; H2 E54K A57N S58E; HC-FW3 L99T A100V (antibody, V domains shown) VH: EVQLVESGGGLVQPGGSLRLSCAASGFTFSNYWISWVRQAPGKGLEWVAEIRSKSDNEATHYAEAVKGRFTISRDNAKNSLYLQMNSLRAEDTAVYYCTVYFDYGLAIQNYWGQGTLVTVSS VL: EIVLTQSPATLSLSPGERATLSCKASKNVSTYVSWYQQKPGQAPRLLIYGASNRYSGIPARFSGSGSGTDFTLTISSLEPEDFAVYYCSQSYNYPYTFGQGTKLEIK , please?
Result: 0.00049
